Test Readout: melting point

As a guide, the following entries are already answered.
Compound: COC(=O)c1ccc(CN(C2CCCCC2O)S(=O)(=O)c2ccc(Cl)cc2)c(F)c1F (stereo not drawn)
melting point: 123 to 125 °C

Compound: CCCCCCCCCCC[C@H](CC(=O)N[C@@H](CO)C(=O)OCc1ccccc1)OC(=O)CCCCCCC
melting point: 50 to 51 °C

Compound: Cc1cc(C)cc(-c2nc(N)sc2-c2ccnc(NCc3ccccc3)c2)c1
melting point: 99 to 102 °C

Data request: GET /values?readout=melting point&item= CSc1cc(C)nc(SC)c1NC(=O)CCCCCCSc1nc2c(C)c(Cl)cc(C(C)C)c2o1
Data returned: 129 to 131 °C

Data request: GET /values?readout=melting point&item= O=C(NCc1ccc(Cl)cc1)c1cnc2c(F)cc(O)cc2c1O
Data returned: 310 to 313 °C

Data request: GET /values?readout=melting point&item= CC(C)(C)NCC(O)COc1ccc(-c2nc(-c3ccccc3)c[nH]2)cc1 (stereo not drawn)
Data returned: 176 to 178 °C

Data request: GET /values?readout=melting point&item= COc1cccc(N2CCCN(/C(C)=C(/C#N)C(N)=S)CC2)c1
Data returned: 129 to 131 °C

Data request: GET /values?readout=melting point&item= O=c1nc(-c2ccc3c(c2)OCCO3)c2cc3c(cc2[nH]1)OCO3
Data returned: > 300 °C

Data request: GET /values?readout=melting point&item= COC(=O)c1cc(C(=O)OC)c(O)c([N+](=O)[O-])c1
Data returned: 74 to 76 °C

Data request: GET /values?readout=melting point&item= CC(Cl)CCC(=O)c1ccccc1 (stereo not drawn)
Data returned: 28 to 30 °C

Data request: GET /values?readout=melting point&item= ClC(=NNc1ccccc1)c1cccc(Cl)c1
Data returned: 80 to 81.5 °C

Data request: GET /values?readout=melting point&item= CCCNC(=O)C(Cc1ccc2c(c1)c(Cc1ccc(C(=O)O)cc1OC)cn2CCC)C(C)C (stereo not drawn)
Data returned: 160 to 162 °C

Data request: GET /values?readout=melting point&item= O=C(O)c1cccc(NC(=O)N2CCc3cc(S(=O)(=O)N4CCN(c5cccc(Cl)c5)CC4)ccc32)c1
Data returned: 250 °C

Data request: GET /values?readout=melting point&item= CC(C)Oc1ccc(CCCOc2ncccc2CC(=O)O)c(Oc2ncc(Cl)cc2Cl)c1
Data returned: 84 to 85 °C

Data request: GET /values?readout=melting point&item= COc1ccc(CN(C)CCCc2ccc(NC(=O)c3cccc4c(=O)c5cccc(OC)c5[nH]c34)c(C)c2)cc1OC
Data returned: 154 °C

Data request: GET /values?readout=melting point&item= CC(C(=O)O)n1cc(-c2ccc(Oc3ccccc3)cc2)c2c(N)ncnc21 (stereo not drawn)
Data returned: 240 to 241 °C

Data request: GET /values?readout=melting point&item= N#Cc1nnc2n1-c1ccc(Cl)cc1C(c1ccccc1)=NC2
Data returned: 191 to 192 °C

Data request: GET /values?readout=melting point&item= O=C1NC(=O)C(=Cc2ccc3c(c2)c2ccccc2n3Cc2ccc(-c3ccccc3)cc2)S1
Data returned: > 250 °C

* * *

// reported melting point per item

As a guide, the following entries are already answered.
Molecule: OC[C@@H](O)[C@@H](CO)OCc1ccccc1Cl
melting point: 74 to 76 °C
--
Molecule: NC(=O)Cc1ccc2c(c1)CCc1cccnc1S2
melting point: 165 to 166 °C
--
Molecule: COC(CCC(N)=C(SC)S(C)=O)OC (stereo not given)
melting point: 86 to 87 °C

Data request: GET /values?readout=melting point&item= CN1CCN(c2n[nH]c3cc(F)ccc23)CC1
Data returned: 164 to 166 °C

Data request: GET /values?readout=melting point&item= O=[N+]([O-])c1cccc2c(O)ccnc12
Data returned: 204 to 206 °C

Data request: GET /values?readout=melting point&item= C=C(C)C(=O)OCc1ccc(C#Cc2ccc(OC(=O)C(=C)C)cc2)cc1
Data returned: 65 °C

Data request: GET /values?readout=melting point&item= CC(=O)N(C)c1c(I)c(NC(=O)CCCC(=O)O)c(I)c(C(=O)O)c1I
Data returned: 189 to 196 °C

Data request: GET /values?readout=melting point&item= CCOC(=O)CCNC(=O)C(Cc1ccc(-c2ccccc2)cc1)N(CP(=O)(O)O)C(OC(=O)CC)C(C)C (stereo not given)
Data returned: 154 to 158 °C

Data request: GET /values?readout=melting point&item= CCOC(=O)c1nc2n(c(=O)c1O)CCOC2
Data returned: 172 to 174 °C

Data request: GET /values?readout=melting point&item= O=C1Nc2cccnc2Oc2ccccc21
Data returned: 268 to 270 °C

* * *

// reported melting point per item

Compound: CC(C)(CCl)C(O)C(=Cc1ccc(Cl)cc1)n1cncn1 (stereo not given)
Test Readout: melting point
Val: 170 °C

Compound: CCCc1ccc(NC(=O)c2cccnc2NCc2ccc(=O)[nH]c2)cc1C(F)(F)F
Test Readout: melting point
Val: 220 to 224 °C

Compound: COc1ccc([C@H]2NC(=S)N[C@H]2c2ccc(OC)cc2)cc1
Test Readout: melting point
Val: 226 to 227 °C

Data request: GET /values?readout=melting point&item= CCCOc1ccc2c(O)c([N+](=O)[O-])c(=O)oc2c1
Data returned: 151 to 152 °C

Data request: GET /values?readout=melting point&item= NCC(O)c1cccc(C(F)(F)F)c1 (stereo not given)
Data returned: 72 °C

Data request: GET /values?readout=melting point&item= COc1ccc(CN2C(=O)[C@@H](NC(=O)Cc3ccccc3)[C@H]2CN=[N+]=[N-])c(OC)c1 (relative stereo)
Data returned: 110 to 111 °C

Data request: GET /values?readout=melting point&item= NS(=O)(=O)c1sc2ccccc2c1CCO
Data returned: 162 to 164 °C

Data request: GET /values?readout=melting point&item= Cn1nnnc1-c1ccc2oc3ncccc3c(=O)c2c1
Data returned: 248 °C

Data request: GET /values?readout=melting point&item= CCCCOc1ccc2c(c1)CCC(C(=O)O)=C2
Data returned: 148 to 150 °C

Data request: GET /values?readout=melting point&item= CCc1cn2ccccc2c1S(=O)(=O)c1ccc(OCCCCBr)cc1
Data returned: 111 °C

Data request: GET /values?readout=melting point&item= COc1ccc(NC(=O)NCc2cccc3c2CN(C2CCC(=O)NC2=O)C3=O)cc1 (stereo not given)
Data returned: 320 to 322 °C

Data request: GET /values?readout=melting point&item= O=C(O)c1c(-c2ccccc2)c(-c2ccccc2)nn1-c1ccccc1
Data returned: 190 °C

Data request: GET /values?readout=melting point&item= CC(C)(C)Nc1c(Nc2ccc3cn[nH]c3c2)c(=O)c1=O
Data returned: 183 to 185 °C

Data request: GET /values?readout=melting point&item= CC(=O)c1ccc2nc3ccc(C(=O)O)cc3c(=O)n2c1
Data returned: 305 to 309 °C

Data request: GET /values?readout=melting point&item= CC(=O)Nc1nc(CCc2ccc(NC(=O)OC(C)(C)C)cc2)c(C(=O)O)s1
Data returned: 237 to 238 °C

* * *

Test Readout: melting point

As a guide, the following entries are already answered.
Compound: COC(=O)CCC(=O)c1cc(OC)ccc1OCC(O)CNC(C)(C)C (stereo not drawn)
melting point: 70 to 72 °C
--
Compound: CC(C)(C)OC(=O)Nc1ccc2nc(N3CCOCC3)nn2c1
melting point: 166 °C
--
Compound: Cc1c(NC(=O)c2ccc(-c3ccccc3)c(F)c2)ccc2cc(CN3CCCCCC3)cnc12
melting point: 129 to 130 °C
--
Compound: c1ccc(-c2ccc(-n3c4ccccc4c4c3ccc3c5ccccc5n(-c5ccc(-c6ccccc6)cc5)c34)cc2)cc1
melting point: 315 °C

Attention now turns to another entry.
Data request: GET /values?readout=melting point&item= O=c1c(Cl)c(Cl)cnn1-c1cc([N+](=O)[O-])c(Cl)cc1F
Data returned: 168 °C

* * *

Test Readout: melting point

As a guide, the following entries are already answered.
Molecule: CC(=O)N1C(=O)C2(COc3cc4c(cc32)OCCO4)c2ccccc21 (stereo not given)
melting point: 236 to 238 °C
--
Molecule: COc1ccc(Cl)cc1-n1c(N(C)C)nc2cc(C(F)(F)F)ccc21
melting point: 230 to 234 °C
--
Molecule: COc1ccc(OC(=O)c2ncn3c2[C@@H]2CCCN2C(=O)c2c(Cl)cccc2-3)cc1
melting point: 210 to 211 °C
--
Molecule: CCOC1(CCC(=O)O)c2cc(C)c(OC(C)=O)cc2Oc2cc(OC(C)=O)c(C)cc21
melting point: 143 °C
--
Molecule: Nc1cc(OCCO)nc(N)n1
melting point: 190 °C

Data request: GET /values?readout=melting point&item= CCc1nc(C)cn1C(=O)c1c(Cl)cccc1[N+](=O)[O-]
Data returned: 116 to 118 °C

Data request: GET /values?readout=melting point&item= CCCC(=O)OCCOc1ccc2oc3cc(-c4nnn[nH]4)ccc3c(=O)c2c1
Data returned: 207 to 209 °C

Data request: GET /values?readout=melting point&item= CCC(O)(CC)CC(=NO)C1(c2ccc(Cl)cc2)CCC1
Data returned: 113 to 115 °C

Data request: GET /values?readout=melting point&item= Cc1cc2c(c(C)c1C)C(=O)C(C)(C)O2
Data returned: 77 to 78 °C
